// reported Enzyme Activity Endpoint Assay: Fab′2 for each item listed
- Target: pooled human IgG
Numbers only here, please. The scale is ng/µL.

1. PRT-19 (protein) MANQEIRYSEESPSVVTSVWTKGVTPPANFTYGEDVFHAPYIANQGWYDITKTFNGKDDLLCGAATAGNMLHWWFDQNKDEIEAYLKKHPEKQKINFNGEQMFDVKEAIDTKDDQTNSKLFNYFKDKAFPYLSTKHLGVFPDHVLDMFINGYRLNLTNHGPTPVKEGSKDPRGGIFDAVFTRGDQSKLLTSRHDFKEKTLKEISDLIKQELTEGKALGLSHTYANVRINHVINLWGADFNSEGNLKAIYVTDSDSNASIGMKKYFVGVNAAGKVAISAKEIKDDNIGAQVLGLFTLSTGQDIWNQTN
42

So what does the record say about Enzyme Activity Endpoint Assay: Fab′2 for PRT-42 (protein) MANQEIRYSEVTPYHVTSVWTKGVTPPANFTQGEDVFHAPYVANQGWYDITKTFNGKDDLLCGAATAGNMLHWWFDQNKDQIDRYLEEHPEKQKINFNGEQMFDVKEAIDTKNDQLDSKLFEYFKEKAFPYLSTKHLGVFPDLVIDMFINGYRLSLTNHGPTPVKEGSKDPRGGFFDAVFTRGDQSKLLTSRHDFKEKNLKEISDLIKKELTEGKALGLSHTYANVRINHVINLWGADFDSNGNLKAIYVTDSDSNASIGMKKYFVGVNSAGKVAISAKEIKEDNIGAQVLGLFTLSTGQDSWNQTN ?
0

For the protein shown here, PRT-4 (protein) MANQEIRYSEVTPYHVTSVWTKGVTPPANFTQGEDVFHAPYVANQGWYDITKTFNGKDDLLCGAATAGNMLHWWFDQNKEQIERYLKEHPEKQKINFNGEQMFDVKEAIDTKDSQLDSKLFEYFKEKAFPYLSTKHLGVFPDHVIDMFINGYRLSLTNHGPTPVKEGSKDPRGGIFDAVFTRGDQSKLLTSRHDFKEKNLKEISDLIKKELTEGKALALSHTYANVRINHVINLWGADFDSNGNLKAIYVTDSDSNASIGMKKYFVGVNSAGKVAISAKEIKEDNIGAQVLGLFTLSTGQDIWNQTN , give the reported Enzyme Activity Endpoint Assay: Fab′2.
21
